Recorded values, source patent US9567345B2.

Biological target: CDK2/CycA (Homo sapiens)
Construct: purchased Proqinase
Assay: CDK2 Enzymatic Activity Assay (Lance Kinase Activity Assay, FRET)
Type: biochemical
Conditions: Table 5B, class symbols per IC50 [nM] ranges of b581; read-out: CDK2: Selectivity of CDK7 inhibition over CDK2 inhibition
Method: This protocol describes how the Lance Kinase Activity Assay was performed to determine IC50 values of compounds of general formula (I) against CDK/Cyclin complexes. […] It is detected by using a specific EU-labeled anti-phospho peptide antibody. […] For positive controls, 2 μl of DMSO working solution were mixed with 6 μl CDK2/CycA/substrate working solution and 2 μl ATP working solution. Positive and negative controls were calculated from at least 8 different wells. […]
OBSERVED PROPERTY: IC50

>>> df
                                   compound  observed_measurement
0  CC(C)c1cnn2c(NCc3ccccc3-n3cc(Cl)cn3)nc(O[C@@H]3CCCNC3)nc12          50 to 500 nM
1  CC(C)c1cnn2c(NCc3ccccc3C(F)(F)F)nc(OC3CCN(C)CC3)nc12 [(VII-58)]               < 50 nM
2  CC(C)c1cnn2c(NCc3ccccc3N3CCCC3=O)nc(O[C@@H]3CCCNC3)nc12          50 to 500 nM
3  CC(C)c1cnn2c(NCc3ccccc3-n3cccn3)nc(N(C)CCCN3CCCCC3)nc12             > 2500 nM
4  C#CC(C)NC(=O)c1ccccc1CNc1nc(O[C@@H]2CCCNC2)nc2c(C(C)C)cnn12 (some centres unmarked)             > 2500 nM

### Prompt Note IC50 for the compound shown: `CC(C)c1cnn2c(NCc3ccccc3Cl)nc(OC3CCN(C)CC3)nc12`
### Response 50 to 500 nM

### Prompt Note IC50 for the compound shown: `CC(C)c1cnn2c(NCc3ccccc3-n3ccnc3)nc(O[C@@H]3CCCNC3)nc12`
### Response 50 to 500 nM

---

Biological target: CDK7/CycH/Mat1 (Homo sapiens, UniProt P50613)
Sequence (P50613 whole entry): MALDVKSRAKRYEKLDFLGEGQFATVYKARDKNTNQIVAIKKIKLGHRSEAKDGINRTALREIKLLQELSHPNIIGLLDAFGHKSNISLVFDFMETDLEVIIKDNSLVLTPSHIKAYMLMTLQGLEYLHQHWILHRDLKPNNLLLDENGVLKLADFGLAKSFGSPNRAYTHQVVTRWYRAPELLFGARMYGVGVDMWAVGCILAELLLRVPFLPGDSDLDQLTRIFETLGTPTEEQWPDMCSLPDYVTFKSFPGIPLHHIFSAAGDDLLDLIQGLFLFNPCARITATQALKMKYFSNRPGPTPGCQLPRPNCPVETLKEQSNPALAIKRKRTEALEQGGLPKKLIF
Assay: CDK7 Enzymatic Activity Assay (Lance Kinase Activity Assay, FRET)
Type: biochemical
Conditions: CDK7/CycH/Mat1, 25 μM ATP final; class ranges; read-out: CDK7: IC50 [nM] for CDK7 inhibition
IC50: recorded values

Before answering, review these 5 worked examples.
>>> print(df.to_string())
                                   compound  observed_measurement
0  CC(C)c1cnn2c(NCc3cccc4c3cnn4C)nc(O[C@@H]3CCCNC3)nc12                < 5 nM
1  CC(C)c1cnn2c(NCc3cccc4c3ccc[n+]4[O-])nc(O[C@@H]3CCCNC3)nc12                < 5 nM
2  COc1ccccc1[C@H](C)Nc1nc(O[C@@H]2CCNC2)nc2c(C(C)C)cnn12            5 to 10 nM
3  CC(C)c1cnn2c(NCc3ccccc3N3CCOCC3)nc(OC3CCN(C)CC3)nc12               > 25 nM
4  CC(C)c1cnn2c(NCc3ccccc3S(=O)(=O)N3CCN(C)CC3)nc(O[C@@H]3CCCNC3)nc12                < 5 nM

### Prompt Note IC50 for the compound shown: `CCOc1ccccc1CNc1nc(OC2CCN(C)CC2)nc2c(C(C)C)cnn12`
### Response < 5 nM

### Prompt Note IC50 for the compound shown: CC(C)c1cnn2c(NCc3ccccc3OS(=O)C(C)(C)C)nc(O[C@@H]3CCCNC3)nc12 (some centres unmarked)
### Response < 5 nM

### Prompt Note IC50 for the compound shown: `CC(C)Oc1ccccc1CNc1nc(N[C@@H]2CCCNC2)nc2c(C(C)C)cnn12`
### Response 5 to 10 nM
